Origin of values: patent US8580965B2

Biological target: B1R receptor of the rat (bradykinin 1 receptor) (Rattus norvegicus, UniProt P97583)
Construct: host or cells: CHO K1 cells (rB1R cells)
Sequence (P97583 1-337): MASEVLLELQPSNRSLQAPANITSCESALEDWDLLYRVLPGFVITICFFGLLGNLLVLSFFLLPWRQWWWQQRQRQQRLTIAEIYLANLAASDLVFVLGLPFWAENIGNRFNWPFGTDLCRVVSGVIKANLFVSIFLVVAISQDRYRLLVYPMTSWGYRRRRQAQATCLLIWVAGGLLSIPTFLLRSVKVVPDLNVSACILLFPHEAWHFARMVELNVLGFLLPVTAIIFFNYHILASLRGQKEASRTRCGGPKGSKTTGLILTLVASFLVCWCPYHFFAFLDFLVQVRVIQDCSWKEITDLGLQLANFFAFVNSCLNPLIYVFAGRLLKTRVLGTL
Assay: FLIPR Ca2+ assay (Fluo-4) on CHO K1 cells stably transfected with the B1R gene of the rat; % activation and % inhibition at 10 μM
Assay type: cell-based
Conditions: test substance 10 μM; CHO K1 rB1R cells; Ca2+ inflow after 100 nM Des-Arg9-bradykinin
Measured B1R antagonism, rat [10 μM] % inhibition values are reported for all entries that follow.
Output spec: scalar in %, unitless text.

In the examples that follow, each entry is paired with its recorded B1R antagonism, rat [10 μM] % inhibition.
                                   molecule                                 parameter   value
0  COc1cc(C)c(S(=O)(=O)N2CCCC2COCC(=O)N2CCC(O)(c3ccc(Cl)c(C(F)(F)F)c3)CC2)c(C)c1 (stereo not shown)  B1R antagonism, rat [10 μM] % inhibition  101.25
1  COc1cc(C)c(S(=O)(=O)N(C)CCOCC(=O)N2CCC(O)(c3ccccn3)CC2)c(C)c1  B1R antagonism, rat [10 μM] % inhibition  105.56
2  O=C(COCC1Cc2ccccc2CN1S(=O)(=O)c1ccc(Cl)cc1Cl)N1CCC(O)(c2cccnc2)CC1 (stereo not shown)  B1R antagonism, rat [10 μM] % inhibition   97.98

# context switch: different molecule, same B1R antagonism, rat [10 μM] % inhibition
(Q) Which B1R antagonism, rat [10 μM] % inhibition is listed for Cc1cc(S(=O)(=O)N2CCCCC2CCC(=O)N2CCC(O)(c3cccnc3)CC2)c(C)cc1Cl (stereo not shown) ?
(A) 97.87

* * *

Biological target: B1R receptor of the rat (bradykinin 1 receptor) (Rattus norvegicus, UniProt P97583)
Construct: host or cells: CHO K1 cells (rB1R cells)
Test: FLIPR Ca2+ assay (Fluo-4) on CHO K1 cells stably transfected with the B1R gene of the rat; % activation and % inhibition at 10 μM
Type: cell-based
Details: CHO-K1, test substance 10 μM; CHO K1 rB1R cells; Ca2+ inflow after 100 nM Des-Arg9-bradykinin; read-out: B1R antagonism, rat [10 μM] % inhibition
Measured inhibition at 10 µM values are reported for all entries that follow.
Output spec: scalar in %, unitless text.

In the examples that follow, each entry is paired with its recorded inhibition at 10 µM.
In [3]: df
Out[3]:
                                   compound  value
0  O=C(COCC1Cc2ccccc2N1S(=O)(=O)c1ccc(Cl)c(Cl)c1)N1CCC(O)(Cc2ccccc2)CC1 (stereo not shown)  -12.4
1  Cc1cc(Cl)cc(Cl)c1S(=O)(=O)N(C)CCOCC(=O)N1CCC(O)(c2ccccc2)CC1   96.1
2  CN(CCOCC(=O)N1CCC(O)(c2ccc(Br)cc2)CC1)S(=O)(=O)c1cc(Cl)sc1Cl   98.5
3  O=C(COCC1CCCCN1S(=O)(=O)c1csc2ccccc12)N1CCC(O)(Cc2ccccc2)CC1 (stereo not shown)     76
4  O=C(COCC1Cc2ccccc2N1S(=O)(=O)c1ccc(Cl)c(Cl)c1)N1CCC(O)(c2cccnc2)CC1 (stereo not shown)  -0.67

(Q) Which inhibition at 10 µM is listed for COc1cc(C)c(S(=O)(=O)N2CCCCC2COCC(=O)N2CCC(O)(c3ccc(Cl)cc3)CC2)c(C)c1 (stereo not shown) ?
(A) 98.4

(Q) Which inhibition at 10 µM is listed for Cc1cc(S(=O)(=O)N2CCCCC2COCC(=O)N2CCC(O)(c3ccc(Cl)c(C(F)(F)F)c3)CC2)c(C)cc1Cl (stereo not shown) ?
(A) 105

* * *

Target: human B1R receptor (bradykinin 1 receptor) (Homo sapiens, UniProt P46663)
Construct: host or cells: CHO K1 cells (hB1R cells)
Sequence (P46663 whole entry): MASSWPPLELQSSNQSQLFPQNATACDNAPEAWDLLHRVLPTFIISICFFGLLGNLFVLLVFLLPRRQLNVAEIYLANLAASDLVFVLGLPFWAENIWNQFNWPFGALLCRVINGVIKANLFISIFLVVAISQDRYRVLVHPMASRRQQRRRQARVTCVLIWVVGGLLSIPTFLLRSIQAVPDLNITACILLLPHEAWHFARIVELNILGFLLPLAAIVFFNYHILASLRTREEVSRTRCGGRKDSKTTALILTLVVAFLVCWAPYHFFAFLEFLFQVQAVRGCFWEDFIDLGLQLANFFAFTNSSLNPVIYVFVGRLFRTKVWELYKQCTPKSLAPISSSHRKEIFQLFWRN
Experiment: FLIPR Ca2+ assay (Fluo-4) on CHO K1 cells stably transfected with the human B1R gene; % activation and % inhibition at 10 μM
Type: cell-based
Settings: CHO-K1, test substance 10 μM; CHO K1 hB1R cells; Ca2+ inflow after 0.5 nM Lys-Des-Arg9-bradykinin; read-out: B1R antagonism, human [10 μM] % inhibition
Structures can show the parent of a compound that is named as a salt.
Label -1 if inhibition at 10 µM falls below 50%; label 1 in every other case.

Worked cases, answers included:
                                   compound                               test_system  group_label
0  COc1cc(C)c(S(=O)(=O)N(C)CCOCC(=O)N2CCC(O)(c3ccc(Cl)cc3)CC2)c(C)c1  human B1R receptor (bradykinin 1 receptor) (Homo sapiens, UniProt P46663)            1
1  COc1cc(C)cc(C)c1S(=O)(=O)N1CCC(OCC(=O)N2CCC(O)(Cc3ccccc3)CC2)C1 (stereo not drawn)  human B1R receptor (bradykinin 1 receptor) (Homo sapiens, UniProt P46663)            1
2  COc1cc(C)c(S(=O)(=O)N2CCCCC2COCC(=O)N2CCC(O)(Cc3ccccc3)CC2)c(C)c1 (stereo not drawn)  human B1R receptor (bradykinin 1 receptor) (Homo sapiens, UniProt P46663)            1
3  O=C(COCC1CCCN1S(=O)(=O)c1cc(Cl)sc1Cl)N1CCC(O)(c2ccc(Cl)c(C(F)(F)F)c2)CC1 (stereo not drawn)  human B1R receptor (bradykinin 1 receptor) (Homo sapiens, UniProt P46663)           -1
4  COc1cc(C)c(S(=O)(=O)N2CCCC(OCC(=O)N3CCC(O)(c4ccccn4)CC3)C2)c(C)c1C (stereo not drawn)  human B1R receptor (bradykinin 1 receptor) (Homo sapiens, UniProt P46663)           -1

(Q) Evaluate O=C(COCC1CCCN1S(=O)(=O)c1c(Cl)cccc1Cl)N1CCC(O)(c2cccc(C(F)(F)F)c2)CC1 (stereo not drawn) : inhibition at 10 µM at minimum 50%?
(A) 1

(Q) Evaluate COc1cc(C)c(S(=O)(=O)N(CCOCC(=O)N2CCC(O)(c3cccnc3)CC2)Cc2ccccc2)c(C)c1 : inhibition at 10 µM at minimum 50%?
(A) 1

(Q) Evaluate O=C(COCC1CCCN1S(=O)(=O)c1cc(Cl)sc1Cl)N1CCC(O)(c2cccnc2)CC1 (stereo not drawn) : inhibition at 10 µM at minimum 50%?
(A) 1

(Q) Evaluate Cc1cc(S(=O)(=O)N(C)CCCC(=O)N2CCC(O)(c3cccnc3)CC2)c(C)cc1Cl [Example 113, hydrochloride] : inhibition at 10 µM at minimum 50%?
(A) 1

(Q) Evaluate O=C(COCC1CCCCN1S(=O)(=O)c1ccccc1C(F)(F)F)N1CCC(O)(c2ccccc2)CC1 (stereo not drawn) : inhibition at 10 µM at minimum 50%?
(A) 1

(Q) Evaluate O=C(COCC1CCCCN1S(=O)(=O)c1c(Cl)cc(C(F)(F)F)cc1Cl)N1CCC(O)(c2cccc(C(F)(F)F)c2)CC1 (stereo not drawn) : inhibition at 10 µM at minimum 50%?
(A) -1

(Q) Evaluate COc1cc(C)c(S(=O)(=O)N2CCCC(COCC(=O)N3CCC(O)(c4ccc(Cl)cc4)CC3)C2)c(C)c1 (stereo not drawn) : inhibition at 10 µM at minimum 50%?
(A) -1

(Q) Evaluate COc1cc(C)c(S(=O)(=O)N2CCC(OCCC(=O)N3CCC(O)(c4ccc(Cl)cc4)CC3)C2)c(C)c1 (stereo not drawn) : inhibition at 10 µM at minimum 50%?
(A) 1

(Q) Evaluate CN(CCOCC(=O)N1CCC(O)(c2ccccn2)CC1)S(=O)(=O)c1c(Cl)cc(Cl)cc1Cl : inhibition at 10 µM at minimum 50%?
(A) 1

(Q) Evaluate O=C(COCC1Cc2ccccc2N1S(=O)(=O)c1ccc(Cl)c(Cl)c1)N1CCC(O)(Cc2ccccc2)CC1 (stereo not drawn) : inhibition at 10 µM at minimum 50%?
(A) -1

* * *

Target: B1R receptor of the rat (bradykinin 1 receptor) (Rattus norvegicus, UniProt P97583)
Construct: host or cells: CHO K1 cells (rB1R cells)
Assay: FLIPR Ca2+ assay (Fluo-4) on CHO K1 cells stably transfected with the B1R gene of the rat; % activation and % inhibition at 10 μM
Type: cell-based
Conditions: CHO-K1, test substance 10 μM; CHO K1 rB1R cells; Ca2+ inflow after 100 nM Des-Arg9-bradykinin; read-out: B1R antagonism, rat [10 μM] % inhibition
Counter-ions that a name gives are not always drawn.
Parameter: inhibition at 10 µM (%)
Output spec: scalar in %, unitless text.

In the examples that follow, each entry is paired with its recorded inhibition at 10 µM.
>>> df
                                   molecule  value
0  Cc1cc(S(=O)(=O)N(C)CCCC(=O)N2CCC(O)(c3cccnc3)CC2)c(C)cc1Cl [Example 113, hydrochloride]   51.1
1  O=C(COC1CCN(S(=O)(=O)c2c(Cl)cc(Cl)cc2Cl)C1)N1CCC(O)(c2ccccc2)CC1 (stereo not shown) [Example 108]   54.5
2  O=C(COC1CCN(S(=O)(=O)c2ccc(Cl)cc2Cl)C1)N1CCC(O)(c2ccccn2)CC1 (stereo not shown) [Example 17]   1.79
3  O=C(COCC1CCCN1S(=O)(=O)c1cc(Cl)sc1Cl)N1CCC(O)(c2ccccc2)CC1 (stereo not shown) [Example 225]   88.5

(Q) Which inhibition at 10 µM is listed for O=C(COCC1CCCN1S(=O)(=O)c1c(Cl)cccc1Cl)N1CCC(O)(Cc2ccccc2)CC1 (stereo not shown) [Example 221] ?
(A) 89.5

(Q) Which inhibition at 10 µM is listed for CN(CCOCC(=O)N1CCC(O)(c2ccc(Cl)cc2)CC1)S(=O)(=O)c1cc(Cl)sc1Cl [Example 260] ?
(A) 91.1

(Q) Which inhibition at 10 µM is listed for COc1cc(C)c(S(=O)(=O)N(CCOCC(=O)N2CCC(O)(c3cccc(C(F)(F)F)c3)CC2)CC(C)C)c(C)c1C [Example 212] ?
(A) 100
